B1: SEC22B (parent)
chain: FPKKLAFAYLEDLHSEFDEQHGKK

variants of: B1; assay: protein stability index of a GFP-peptide fusion (GPS, HEK-293T) (PSI 1-6); higher = more stable; conditions: c terminus: a fixed tail appended;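 note: lentivirally expressed fusions sorted by FACS into six bins by GFP to DsRed ratio, PSI derived from sequencing read proportions per bin multiplied by bin number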
property_label: protein stability index

Check out these entries, answers already filled in.
FPKKLAFAYLEDLHSEFFEQHGKK [D18F]
2.04
FPKKLAFAYLEDLHSEGDEQHGKK [F17G]
2.4
FPKKLAFAYLEDLHSEFDEQHLKK [G22L]
2.34
FPKKLAFAYLEDLGSEFDEQHGKK [H14G]
2.57

In plain terms, FPKKLAFAYLEDLHSWFDEQHGKK [E16W] has a documented protein stability index of 1.94

In plain terms, FPKTLAFAYLEDLHSEFDEQHGKK [K4T] has a documented protein stability index of 2.47

In plain terms, FPKKLAFAYLEDLHSEFMEQHGKK [D18M] has a documented protein stability index of 2.22

In plain terms, FPKKLAFAYLEDLHSEFDEQTGKK [H21T] has a documented protein stability index of 2.69

In plain terms, FPKKLAFAYLEDMHSEFDEQHGKK [L13M] has a documented protein stability index of 2.3

In plain terms, FPWKLAFAYLEDLHSEFDEQHGKK [K3W] has a documented protein stability index of 1.96

In plain terms, FPKKLAFAYLEDLHSEFDCQHGKK [E19C] has a documented protein stability index of 2.15

In plain terms, FPKKLAFAYLNDLHSEFDEQHGKK [E11N] has a documented protein stability index of 2.61

In plain terms, FPKKLAFAYLEDLCSEFDEQHGKK [H14C] has a documented protein stability index of 2.07

In plain terms, FPKKLAFAYLEDLHSEFDEQHMKK [G22M] has a documented protein stability index of 2.62

In plain terms, FYKKLAFAYLEDLHSEFDEQHGKK [P2Y] has a documented protein stability index of 2.16
